# assayed_target: Follistatin-related protein 3 (Homo sapiens)
# assay_explanation: FSTL3 binders on small-molecule microarrays, primary screen, biochemical, small-molecule microarray, 635 nm fluorescence (AID 1105);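 also: score merges emission near 667 nm and signal to noise per printed spot across three slides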
# condition: FSTL3 binding, higher = more signal
reported_endpoint: composite z-score
Form field (numeric): enter value without unit.

For orientation, consider the following solved cases.
# molecule, composite z-score
records = [
    ("C=CCNC(=O)[C@H]1[C@@H]2C(=O)O[C@@H](c3ccccc3)[C@@H](c3ccccc3)N2[C@@H](c2ccc(O)cc2)[C@]12C(=O)Nc1ccc(C#CCC(C(=O)OC)C(=O)OC)cc12", 0.339),
    ("COc1ccc([Si](C)(C)[C@@H]2[C@@H](CC(=O)N(CCO)Cc3ccccc3)O[C@]3(C(=O)N(Cc4cccc(I)c4)c4ccccc43)[C@H]2C)cc1", 1.42),
    ("O=C(O)C1=CC[C@H]2C(=O)N(c3ccccc3)C(=O)[C@@H]12", 1.11),
    ("[N-]=[N+]=NCc1ccccc1[C@H]1OC(c2ccc(OCCCO)cc2)=N[C@@]1(CCS(=O)(=O)c1ccccc1)C(=O)NCCN1CCOCC1", 0.698),
]

Query :: Specify measured composite z-score for C[C@]1(C(=O)NC2CC2)c2ccccc2C(=O)N(Cc2cc(F)cc(C(F)(F)F)c2)[C@H]1c1ccc(CO)cc1 .
Result :: -0.801

Query :: Specify measured composite z-score for C=CC[C@H](OC(=O)Nc1ccc(SC)cc1)c1ccc(O)c(F)c1 .
Result :: -0.88

Query :: Specify measured composite z-score for O=C1C2C=CC(C(O)C3CCCCC3)N(Nc3ccccc3F)C2C(=O)N1c1ccccc1 (stereo not given) .
Result :: 1.08

* * *

# assay_explanation: E. coli DRC41 culture turbidity changes, primary screen, E. coli filamentation inducer project, strain DRC41, OD650, 48 h (AID 1152);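 also: E. coli MC1000 strain DRC41 lacking acrAB efflux pump and sulA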
# condition: E. coli DRC41 (acrAB sulA), higher = more signal, called active from +8 up or from −8 down
reported_endpoint: z-score
Form field (numeric): enter value without unit.

Query :: Specify measured z-score for COc1ccc([Si](C)(C)[C@@H]2[C@@H](CC(=O)N(CCO)Cc3ccccc3)O[C@]3(C(=O)N(Cc4cccc(I)c4)c4ccccc43)[C@H]2C)cc1 .
Result :: -0.307

Query :: Specify measured z-score for C=C(CC1([C@@H](NP(=O)(c2ccccc2)c2ccccc2)[C@H]2C[C@@H]2CCCC)CC1)c1cccc(OC)c1 .
Result :: -1.57

Query :: Specify measured z-score for CC(=O)NCCCC[C@@H]1NC(=O)[C@H]2C[C@@H](C(=O)NCCCCCN)[C@@H](c3ccc(O)cc3)N2C1=O .
Result :: -0.556

Query :: Specify measured z-score for O=C(NC1CC1)[C@@H]1c2ccccc2C(=O)N(C2CCCCC2)[C@H]1c1ccc(CO)cc1 .
Result :: 0.1

Query :: Specify measured z-score for COCCOC(=O)N1C(=O)[C@@]2(c3cc(C#CC4=CCCCC4)ccc31)[C@H](c1ccc(O)cc1)N1[C@H](c3ccccc3)[C@H](c3ccccc3)OC(=O)[C@H]1[C@@H]2C(=O)N1CCc2cc(OC)c(OC)cc2C1 .
Result :: -0.164

Query :: Specify measured z-score for COCCOC(=O)N1C(=O)[C@@]2(c3cc(C#CCC(C(=O)OC)C(=O)OC)ccc31)[C@H](C(=O)N1CCc3cc(OC)c(OC)cc3C1)[C@H]1C(=O)O[C@H](c3ccccc3)[C@H](c3ccccc3)N1[C@@H]2c1ccccc1OCCO .
Result :: 1.25

Query :: Specify measured z-score for CCOC(=O)C[C@H]1[C@H](OC(=O)c2ccc(-c3ccccc3)cc2)[C@@H](NC(=O)c2ccc(-c3ccccc3)cc2)c2cc(OCCCO)ccc2N1C(=O)c1ccccc1 .
Result :: -0.825

Query :: Specify measured z-score for COC(=O)C(CC#Cc1ccc2c(c1)[C@]1(C(=O)N2)[C@H](c2ccc(OCCO)cc2)N2[C@H](c3ccccc3)[C@H](c3ccccc3)OC(=O)[C@H]2[C@@H]1C(N)=O)C(=O)OC .
Result :: -0.763

Query :: Specify measured z-score for CCOC(=O)C1=C[C@@H](C(C)(C)C)N(S(=O)(=O)c2ccc(C)cc2)[C@H]1c1ccc(OC)cc1 .
Result :: -0.0371

Query :: Specify measured z-score for C[C@]1(C(=O)NCC(F)(F)F)c2ccccc2C(=O)N(Cc2cc(C(F)(F)F)cc(C(F)(F)F)c2)[C@H]1c1ccc(CO)cc1 .
Result :: 1.17
